Taken from patent US9017689B2.

test_details: Solubility screening in trehalose matrices pH 2.65 to 7.03
Format: physicochemical
measurement_context: 10 mM sodium citrate and 260 mM trehalose dihydrate, pH 5.02
Ends that are not written are not given here.
Please note: t applies when Solubility [mg per ml 'as is'] is 2 mg per ml ‘as is’ or greater, and f applies otherwise.

Confirm if Solubility [mg per ml 'as is'] reported for the sequence PGTIKKISFPEGFPFKYV [Bir04] is 2 mg per ml ‘as is’ or above.
t

Consider next the sequence SNEIKIVATPEGGSILK [Bir07C] in the same way.
f

Consider next the sequence PAARMFKAFILEGDKLVPK [Bir02J] in the same way.
f

Consider next the sequence FNYETETTSVIPAARK [BIR1I] in the same way.
t

Consider next the sequence AKYMVIQGEPGRVIRGK [Bir12B] in the same way.
t

Consider next the sequence ETLLRAVESYLLAHSDAY [Bir09] in the same way.
f

Consider next the sequence KEMGETLLRAVESYLLAHS [Bir09B] in the same way.
t

Consider next the sequence AERERIFKRFDANGEGK [Bir16A] in the same way.
t

###

test_details: Solubility screening in trehalose matrices pH 2.65 to 7.03
Format: physicochemical
measurement_context: 10 mM sodium citrate and 260 mM trehalose dihydrate, pH 3.99
Ends that are not written are not given here.
metric: Solubility [μmol per ml] (μmol per ml)
Answer format: numeric, μmol per ml implied, no suffix.

Consider the sequence FNYETETTSVIPAARK [BIR1I] and give its measured Solubility [μmol per ml].
1.078

Consider next the sequence PGTIKKISFPEGFPFKYV [Bir04] in the same way.
8.580

Consider next the sequence AKYMVIQGEPGRVIRGK [Bir12B] in the same way.
4.534

Consider next the sequence PAARMFKAFILEGDKLVPK [Bir02J] in the same way.
0.148

Consider next the sequence ETLLRAVESYLLAHSDAY [Bir09] in the same way.
0.148

Consider next the sequence AERERIFKRFDANGEGK [Bir16A] in the same way.
3.208

Consider next the sequence KEMGETLLRAVESYLLAHS [Bir09B] in the same way.
4.618

Consider next the sequence SNEIKIVATPEGGSILK [Bir07C] in the same way.
0.188

###

test_details: Solubility screening in trehalose matrices pH 2.65 to 7.03;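 further: test items are peptides, each checked for solubility in every trehalose matrix, the matrices made up in distilled deionised water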
Format: physicochemical
measurement_context: 10 mM sodium citrate and 260 mM trehalose dihydrate, pH 3.01
Ends that are not written are not given here.
Assign Solubility [mg per ml 'as is'] to each entry below.
Answer format: numeric, mg per ml ‘as is’ implied, no suffix.

Consider the sequence FNYETETTSVIPAARK [BIR1I] and give its measured Solubility [mg per ml 'as is'].
1.65

Consider next the sequence PGTIKKISFPEGFPFKYV [Bir04] in the same way.
22.58

Consider next the sequence AKYMVIQGEPGRVIRGK [Bir12B] in the same way.
5.47

Consider next the sequence PAARMFKAFILEGDKLVPK [Bir02J] in the same way.
0.38

Consider next the sequence ETLLRAVESYLLAHSDAY [Bir09] in the same way.
0.37

Consider next the sequence SNEIKIVATPEGGSILK [Bir07C] in the same way.
1.30

Consider next the sequence AERERIFKRFDANGEGK [Bir16A] in the same way.
7.17

Consider next the sequence KEMGETLLRAVESYLLAHS [Bir09B] in the same way.
11.62
